What T/C was measured for each of the following?
# System: P388 leukemia ip, CD2F1 mice, survival T/C
# test: NCI In Vivo Anticancer Drug Screen. Data for tumor model P388 Leukemia (intraperitoneal) in CD2F1 (CDF1) mice
# test_settings: endpoint: median survival time; dose: 100.0 mg/kg/injection; schedule: Q01DX009 (ip); vehicle: saline; higher = longer survival
# Procedure: The antitumor activity of compounds was measured in mice bearing transplantable tumors. Survival or tumor size were measured and the results are expressed as the measurement made in the treated group (T) divided by the measurement made in the vehicle treated control group (C). The tumor model used in this assay is P388 Leukemia (intraperitoneal) in CD2F1 (CDF1) mice
Toxic doses and inconclusive results are not listed.

compound	measured_on	T/C
CC(=O)OC(C(=O)O)C(OC(C)=O)C(OC(C)=O)C(=O)O (stereo not drawn)	P388 leukemia ip, CD2F1 mice, survival T/C	101 % of control
COC(=O)CS(=O)(=O)CCCCS(=O)(=O)CC(=O)OC	P388 leukemia ip, CD2F1 mice, survival T/C	99 % of control

Hi, could you look up T/C for each item in my list?
1. N#Cc1cnn(-c2ccc([N+](=O)[O-])cc2[N+](=O)[O-])c1N
2. C=C(C(=O)O)C(=O)O
3. FC(F)(F)c1cccc(NC(=S)SCc2ccc(Cl)c(Cl)c2)c1
4. O=CNCNC=O

[out]
100 % of control
110 % of control
90 % of control
90 % of control

Give measured T/C for every item shown.
1. Cc1cc(C)n(-c2cc(N3CCOCC3)ncn2)n1
2. Oc1cc2c(cc1O)[C@H]1c3ccc(O)c(O)c3OC[C@@]1(O)C2
3. C1CNCCSCCCSCCNC1
4. [N-]=[N+]=C(S(=O)(=O)O)S(=O)(=O)O
5. FC(F)(F)c1ccc(Cl)c(NC(=S)SC2CCCCC2)c1
6. Cc1ccc(S(=O)(=O)N(Cc2ccc(Cl)cc2)S(=O)(=O)c2ccc(C)cc2)cc1
7. CCOC(=O)CNC1=NCCO1
8. CC[N+]1([O-])CCOCC1

[out]
1: 95 % of control; 2: 113 % of control; 3: 89 % of control; 4: 112 % of control; 5: 100 % of control; 6: 100 % of control; 7: 107 % of control; 8: 101 % of control

----------
# Tested on: P388 leukemia ip, CD2F1 mice, survival T/C
# test: NCI In Vivo Anticancer Drug Screen. Data for tumor model P388 Leukemia (intraperitoneal) in CD2F1 (CDF1) mice
# test_settings: endpoint: median survival time; dose: 25.0 mg/kg/injection; schedule: Q01DX005 (ip); vehicle: Klucel (hydroxypropylcellulose) (HPC); higher = longer survival
Toxic doses and inconclusive results are not listed. Square brackets hold non-standard residues; d marks the D form. Peptide text beside a SMILES is read from it. * marks the point of attachment. ξ: configuration not given here. Cbz = O=C(OCc1ccccc1)*; OBn = c1ccc(CO*)cc1; Bn = c1ccc(C*)cc1; ξC = NC(CS)C(=O)O
property_measured: T/C

Examples with their reported T/C follow.
compound	T/C
CC1=NN(C(C)(C)C)[Si]2(C(C)(C)C)C1[Si]1(C(C)(C)C)C2C(C)=NN1C(C)(C)C (stereo unspecified)	92 % of control
O=C(O)/C(Cl)=C(Cl)\C=N\c1ncn[nH]1	112 % of control
CC(=O)[O][Bi]([c]1ccccc1)[c]1ccccc1	118 % of control
COc1c(-c2ccccc2)oc2c(ccc3occc32)c1=O	99 % of control
CC(CNC(Cc1ccccc1)c1ccccc1)NC(Cc1ccccc1)c1ccccc1 (stereo unspecified)	102 % of control
CC1(C)Cc2[nH]c3ccccc3c(=O)c2-c2nc3ccccc3c(=O)n21	88 % of control
CC(=O)O[C@@H]1C[C@@H]2[C@@]3(C)CC[C@@H](OC(=O)CC(=O)O)C(C)(C)[C@@H]3CC[C@@]2(C)[C@]2(C)CCCC([C@]3(C)CC[C@H](C(C)(C)O)O3)[C@@H]12 (stereo partly specified)	92 % of control
CN=C(NC)c1ccc(NC(=O)c2cc(OC)cc(C(=O)Nc3ccc(C(=NC)NC)cc3)c2)cc1	110 % of control

Quick one: give me T/C for each item below, same order please.
1. O=C(CNC(=O)C(CSCc1ccccc1)NC(=O)OCc1ccccc1)NCC(=O)OCc1ccccc1 (stereo not drawn) (Cbz-[ξC](Bn)-Gly-Gly-OBn)
2. O=C(/C=C/C=C/c1ccccc1)CCc1ccccc1
3. OCC(O)CNc1ncnc2cc(Cl)ccc12 (stereo unspecified)

[out]
1: 95 % of control; 2: 95 % of control; 3: 100 % of control

----------
# System: P388 leukemia ip, CD2F1 mice, survival T/C
# test: NCI In Vivo Anticancer Drug Screen. Data for tumor model P388 Leukemia (intraperitoneal) in CD2F1 (CDF1) mice
# test_settings: endpoint: median survival time; dose: 100.0 mg/kg/injection; schedule: Q01DX009 (ip); vehicle: Klucel (hydroxypropylcellulose) (HPC); higher = longer survival
# Procedure: The antitumor activity of compounds was measured in mice bearing transplantable tumors. Survival or tumor size were measured and the results are expressed as the measurement made in the treated group (T) divided by the measurement made in the vehicle treated control group (C). The tumor model used in this assay is P388 Leukemia (intraperitoneal) in CD2F1 (CDF1) mice
Toxic doses and inconclusive results are not listed.
property_measured: T/C

molecule	T/C
c1cc2c3c(cccc3c1)-c1nc3c(ccc4ccccc43)nc1-2	101 % of control
CC(=O)NC(C=O)C(O)C(O)C(O)C(=O)O (configuration not stated)	107 % of control

Each of the following entries comes with a recorded value; kindly state T/C for each.
1. O=C(O)CNO
2. COC(=O)C1=C(C(=O)OC)C2C=CC1C1C(Br)C(Br)C21 (configuration not stated)
3. CC(C)N(C)N=Nc1ccc(C(N)=O)cc1
4. COC1CC(N=S(=O)(O)c2ccc(N)cc2)[N-]C(OC)N1.[Ag+] (configuration not stated)

[out]
1. 105 % of control
2. 102 % of control
3. 113 % of control
4. 93 % of control

[in] Entry COc1ccc(CNC(=O)C2C(=O)C(=O)N(Cc3ccc(OC)c(OC)c3)C2=O)cc1OC (configuration not stated) has what T/C?
[out] 96 % of control

----------
# Tested on: P388 leukemia ip, CD2F1 mice, survival T/C
# test: NCI In Vivo Anticancer Drug Screen. Data for tumor model P388 Leukemia (intraperitoneal) in CD2F1 (CDF1) mice
# test_settings: endpoint: median survival time; dose: 200.0 mg/kg/injection; schedule: Q04DX003 (ip); vehicle: saline with Tween-80
Toxic doses and inconclusive results are not listed. Rule for the calls: active = survival T/C of 150% or more; inactive = T/C below 125% in these data.
One label from this list, please: active, inactive

Known results for molecules:
molecule	class
O=C(/C=C/c1c(Cl)cccc1Cl)c1ccc(Cl)cc1	inactive
CCOc1ccc2c(O)csc2c1	inactive
CC(=O)Cc1ccc(C)cc1	inactive
O=C(CC(=O)Oc1ccc(Cl)cc1Cl)Oc1ccc(Cl)cc1Cl	inactive
CCCCC(CC)COC(OCC(CC)CCCC)C(OCC(CC)CCCC)OCC(CC)CCCC (configuration not stated)	inactive
O=C(O)/C=C(O)/C=C/c1ccccc1	inactive

[in] Assay outcome for CC(C)C(Sc1nc(N)nc2nc[nH]c12)C(=O)O (configuration not stated) : what was it?
[out] inactive

[in] One more molecule: "c1ccc2c(c1)[nH]c1cc3ccncc3cc12"
[out] inactive

[in] Please give the result for "Clc1ccccc1/C=C/C=C1c2ccccc2-c2ccccc21" too.
[out] inactive

[in] Also check CC(CN)OS(=O)(=O)O (configuration not stated)
[out] inactive

[in] # iterate: "CCc1nc(-c2ccccc2)c(-c2ccccc2)[nH]1"
[out] inactive

[in] # repeat for "CCOC(=O)c1cnc[nH]c1=O"
[out] inactive

----------
For each record, write down the corresponding T/C.
# System: P388 leukemia ip, CD2F1 mice, survival T/C
# test: NCI In Vivo Anticancer Drug Screen. Data for tumor model P388 Leukemia (intraperitoneal) in CD2F1 (CDF1) mice
# test_settings: endpoint: median survival time; dose: 100.0 mg/kg/injection; schedule: Q01DX001 (ip); vehicle: saline with Tween-80; higher = longer survival
Toxic doses and inconclusive results are not listed.

molecule	property_measured	reported_value
CC(CC(N)=O)Cc1ccccc1 (stereo not drawn)	T/C	104 % of control
CCC(c1ccc(OC)cc1)C(NCC(=O)NNC(=S)Nc1ccccc1)c1ccc(OC)cc1 (stereo not drawn)	T/C	92 % of control
CCC(C)NCC/C(=C\[Si](C)(C)C)c1ccccc1 (stereo not drawn)	T/C	100 % of control

Hi there! I need T/C for each item below, if you can.
1. CCOC(=O)Nc1cc(N(C)CC(O)c2ccccc2)c(N)c(N)n1 (stereo not drawn)
2. CC1=C(C(=O)Nc2ccccc2)C(/C=C/c2ccccc2)C(C(=O)Nc2ccccc2)=C(C)N1
3. COc1ccc(/C(C)=N/N=c2/sc3ccccc3n2CC(=O)O)cc1
4. CC(=O)OCC1OC(Nc2[nH]c(=O)nc3occc23)C(OC(C)=O)C(OC(C)=O)C1OC(C)=O (stereo not drawn)
5. CCOC(=O)c1cccc2c([N+](=O)[O-])c([N+](=O)[O-])cc(C(=O)OCC)c12
6. CCCCCCCCCCCCCCCCCC[N+]1(CCC(C)C)CCSCC1

[out]
1: 94 % of control; 2: 96 % of control; 3: 101 % of control; 4: 107 % of control; 5: 99 % of control; 6: 88 % of control

# return T/C for each item in the list
1. O=c1c(Cl)c(Cl)cnn1-c1ccccc1
2. CCOc1c(N2CCOCC2)c(=O)c1=O
3. CC(C)(F)c1nc2ncncc2[nH]c1=O

[out]
111 % of control
100 % of control
103 % of control

[in] Can you share its T/C? I mean this molecule: "NC(N)=NC(N)=Nc1cc2c3ccccc3ccc2c2ccccc12"
[out] 92 % of control
